# credit: patent US20250243171A1

# targetOfAssay: Ba/F3 stable cells (Homo sapiens, UniProt P00533, INS763FQEA, cells depend on it)
# Construct: EC50 Ba/F3-EGFR A763-Y764insFQEA; other: Ba/F3-EGFR A763-Y764insFQEA cells, 72 h, CCK-8
# Sequence (P00533 with tags, fused parts or gaps INS763FQEA): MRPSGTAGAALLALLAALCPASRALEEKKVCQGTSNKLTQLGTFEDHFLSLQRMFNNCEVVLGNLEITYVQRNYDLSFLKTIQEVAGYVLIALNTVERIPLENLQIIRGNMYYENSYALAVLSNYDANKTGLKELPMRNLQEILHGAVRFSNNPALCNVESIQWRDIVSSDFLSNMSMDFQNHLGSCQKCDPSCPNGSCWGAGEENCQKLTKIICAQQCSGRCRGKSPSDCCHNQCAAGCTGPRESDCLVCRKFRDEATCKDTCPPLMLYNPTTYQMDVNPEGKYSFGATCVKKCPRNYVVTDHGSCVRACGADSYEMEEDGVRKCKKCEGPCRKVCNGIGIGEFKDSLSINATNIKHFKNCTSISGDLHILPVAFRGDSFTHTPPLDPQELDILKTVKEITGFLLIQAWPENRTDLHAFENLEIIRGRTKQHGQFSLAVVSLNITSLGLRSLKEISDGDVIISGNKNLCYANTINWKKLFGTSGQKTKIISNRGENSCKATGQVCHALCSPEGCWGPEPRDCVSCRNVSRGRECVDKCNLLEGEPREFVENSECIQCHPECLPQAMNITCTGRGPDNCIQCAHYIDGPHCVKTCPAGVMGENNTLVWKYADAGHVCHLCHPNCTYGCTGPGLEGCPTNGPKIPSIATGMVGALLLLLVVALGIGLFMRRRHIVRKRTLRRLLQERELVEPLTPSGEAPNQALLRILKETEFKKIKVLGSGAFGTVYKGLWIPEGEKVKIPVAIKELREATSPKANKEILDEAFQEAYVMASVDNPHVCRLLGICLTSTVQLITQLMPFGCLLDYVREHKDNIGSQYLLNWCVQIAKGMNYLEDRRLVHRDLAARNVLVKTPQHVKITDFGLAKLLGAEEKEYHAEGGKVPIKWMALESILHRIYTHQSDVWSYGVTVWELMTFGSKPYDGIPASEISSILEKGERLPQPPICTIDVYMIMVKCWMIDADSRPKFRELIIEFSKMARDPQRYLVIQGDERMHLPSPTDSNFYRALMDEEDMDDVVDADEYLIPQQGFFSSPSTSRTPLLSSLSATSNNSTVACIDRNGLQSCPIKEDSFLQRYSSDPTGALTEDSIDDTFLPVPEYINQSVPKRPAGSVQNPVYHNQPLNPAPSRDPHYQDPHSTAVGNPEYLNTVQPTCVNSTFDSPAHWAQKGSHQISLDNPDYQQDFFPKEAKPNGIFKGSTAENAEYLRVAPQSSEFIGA
# runDescription: EC50 assay: Ba/F3 stable cell proliferation (CCK-8, 72 h)
# experimentalSetup: Ba/F3-EGFR A763-Y764insFQEA cells
pEC50: −log10 of the molar value.
Below is a list of entries, each paired with its recorded pEC50 value.

Consider the worked cases shown below.
{"columns": ["compound", "targetOfAssay", "pEC50"],
 "data": [
  ["C=CS(=O)(=O)N1CCC(Oc2cc3c(C(=O)c4ccc(Cl)c(Cl)c4F)ncnc3cc2OC)CC1 [Compound 193]", "Ba/F3 stable cells (Homo sapiens, UniProt P00533, INS763FQEA, cells depend on it)", "≥ 6.70"],
  ["C=CC(=O)N[C@H]1C[C@@H](Oc2cc3c(Nc4ccc(Cl)c(Cl)c4)ncnc3cc2OC)C1 [Compound 82]", "Ba/F3 stable cells (Homo sapiens, UniProt P00533, INS763FQEA, cells depend on it)", "≥ 6.70"],
  ["C=CC(=O)N1CC(c2cc3c(Nc4ccc(F)c(Cl)c4)ncnc3cc2OC)C1 [Compound 6]", "Ba/F3 stable cells (Homo sapiens, UniProt P00533, INS763FQEA, cells depend on it)", "≥ 6.70"],
  ["C=CC(=O)N1CCC(Oc2cc3c(Nc4ccc5c(c4)OCO5)ncnc3cc2OC)CC1 [Compound 152]", "Ba/F3 stable cells (Homo sapiens, UniProt P00533, INS763FQEA, cells depend on it)", "≥ 6.70"],
  ["C=CS(=O)(=O)N1CCCC(c2ccc3ncnc(Nc4ccc(Cl)c(Cl)c4F)c3c2)C1 (stereo not shown) [Compound 188]", "Ba/F3 stable cells (Homo sapiens, UniProt P00533, INS763FQEA, cells depend on it)", "≥ 6.70"]
]}

// moving on: another record for pEC50
Form field: reported pEC50 of C=CC(=O)N1CCC(Oc2cc3c(C(=O)NCc4ccc(F)cc4)ncnc3cc2OC)CC1 [Compound 94]
≥ 6.70

* * *

# targetOfAssay: Ba/F3 stable cells (Homo sapiens, UniProt P00533, DUP768-770, cells depend on it)
# Construct: EC50 Ba/F3-EGFR D770-N771insSVD; other: Ba/F3-EGFR D770-N771insSVD cells, 72 h, CCK-8
# Sequence (P00533 with tags, fused parts or gaps DUP768-770): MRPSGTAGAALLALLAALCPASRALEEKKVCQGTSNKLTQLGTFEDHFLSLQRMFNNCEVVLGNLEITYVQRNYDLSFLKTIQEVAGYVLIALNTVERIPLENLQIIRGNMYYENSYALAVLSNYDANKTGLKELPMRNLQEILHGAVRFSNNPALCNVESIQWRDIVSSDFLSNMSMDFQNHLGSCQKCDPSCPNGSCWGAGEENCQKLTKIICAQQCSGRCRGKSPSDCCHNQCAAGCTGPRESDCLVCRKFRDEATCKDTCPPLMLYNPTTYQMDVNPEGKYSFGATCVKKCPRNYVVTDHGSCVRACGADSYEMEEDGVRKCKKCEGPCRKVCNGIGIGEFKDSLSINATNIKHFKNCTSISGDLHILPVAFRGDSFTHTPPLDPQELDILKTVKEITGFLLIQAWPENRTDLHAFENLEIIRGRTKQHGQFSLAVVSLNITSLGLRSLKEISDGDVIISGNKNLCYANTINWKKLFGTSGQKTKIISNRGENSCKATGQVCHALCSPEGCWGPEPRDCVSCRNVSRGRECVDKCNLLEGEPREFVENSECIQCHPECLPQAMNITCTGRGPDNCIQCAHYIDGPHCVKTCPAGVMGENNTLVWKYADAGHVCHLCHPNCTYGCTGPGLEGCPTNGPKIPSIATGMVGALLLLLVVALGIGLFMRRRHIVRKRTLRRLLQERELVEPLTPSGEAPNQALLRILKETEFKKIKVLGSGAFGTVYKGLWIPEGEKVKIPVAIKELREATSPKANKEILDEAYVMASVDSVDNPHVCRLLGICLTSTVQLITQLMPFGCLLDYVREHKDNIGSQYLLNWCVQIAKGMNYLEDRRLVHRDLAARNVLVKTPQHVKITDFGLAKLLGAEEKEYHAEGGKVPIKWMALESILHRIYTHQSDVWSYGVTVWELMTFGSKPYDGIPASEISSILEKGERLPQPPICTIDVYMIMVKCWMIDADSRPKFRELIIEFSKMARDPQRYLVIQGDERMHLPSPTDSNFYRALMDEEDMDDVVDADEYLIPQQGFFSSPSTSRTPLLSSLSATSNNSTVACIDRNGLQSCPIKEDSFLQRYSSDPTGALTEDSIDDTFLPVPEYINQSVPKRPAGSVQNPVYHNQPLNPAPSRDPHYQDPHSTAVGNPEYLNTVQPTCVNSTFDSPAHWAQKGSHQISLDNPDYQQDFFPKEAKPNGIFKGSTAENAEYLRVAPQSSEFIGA
# runDescription: EC50 assay: Ba/F3 stable cell proliferation (CCK-8, 72 h)
# experimentalSetup: Ba/F3-EGFR D770-N771insSVD cells
pEC50: −log10 of the molar value.
Below is a list of entries, each paired with its recorded pEC50 value.

{"columns": ["compound", "propertyMeasured", "recordedValue"],
 "data": [
  ["C=CC(=O)N1CCC(Oc2c(OC)cc3ncnc4c3c2NC(=O)N4c2ccc(Cl)c(Cl)c2)CC1", "pEC50", "< 6.00"],
  ["C=CC(=O)N1CCC(Oc2cc3c(C(=O)c4ccc(OC)cc4)ncnc3cc2OC)CC1", "pEC50", "< 6.00"],
  ["C=CC(=O)N1CCC(Oc2cc3c(NCc4ccccc4Cl)ncnc3cc2OC)CC1", "pEC50", "6.00 to 6.70"],
  ["C=CC(=O)N1CCC(Oc2cc3c(NC(CCO)c4cccc(Cl)c4)ncnc3cc2OC)CC1 (stereo not shown)", "pEC50", "≥ 6.70"],
  ["C=CC(=O)N1CCC(Oc2cc3c(N4CCN(c5cccc(Cl)c5)CC4)ncnc3cc2OC)CC1", "pEC50", "< 6.00"]
]}

Form field: reported pEC50 of C=CC(=O)N1CC(c2cc3c(Nc4ccc(Cl)c5ccccc45)ncnc3cc2OC)C1
< 6.00

Try this compound next: [2H]C([2H])([2H])Oc1cc2ncnc(Nc3ccc(Cl)c(Cl)c3F)c2cc1O[C@H]1C[C@@H](NC(=O)C=C)C1
≥ 6.70

Try this compound next: C=CC(=O)NC1CC(Oc2cc3c(C(=O)NCc4ccc(F)cc4)ncnc3cc2OC)C1 (stereo not shown)
< 6.00

Try this compound next: C=CC(=O)N(C)C1CC(Oc2cc3c(Nc4ccc(Cl)c(Cl)c4F)ncnc3cc2OC)C1 (stereo not shown)
≥ 6.70

* * *

# targetOfAssay: Ba/F3 stable cells (Homo sapiens, UniProt P00533, DUP768-770, cells depend on it)
# Construct: EC50 Ba/F3-EGFR D770-N771insSVD; other: Ba/F3-EGFR D770-N771insSVD cells, 72 h, CCK-8
# runDescription: EC50 assay: Ba/F3 stable cell proliferation (CCK-8, 72 h)
# Type: cell-based
# experimentalSetup: Ba/F3-EGFR D770-N771insSVD cells
pEC50: −log10 of the molar value.
Below is a list of entries, each paired with its recorded pEC50 value.

{"columns": ["compound", "propertyMeasured", "recordedValue"],
 "data": [
  ["C=CC(=O)N1CCCC(c2ccc3ncnc(Nc4ccc(Cl)c(Cl)c4F)c3c2)C1 (centres unmarked)", "pEC50", "6.00 to 6.70"]
]}

Form field: reported pEC50 of C#CC(=O)N[C@H]1C[C@@H](Oc2cc3c(Nc4cccc5ccccc45)ncnc3cc2OC)C1
≥ 6.70

Try this compound next: C=CC(=O)NC1CC(Oc2cc3c(Nc4ccc(C)c5c4CCC5)ncnc3cc2OC)C1 (centres unmarked)
< 6.00

Try this compound next: C=CC(=O)N1CCC(Oc2cc3c(Nc4cnc5ccccc5c4)ncnc3cc2OC)CC1
6.00 to 6.70

Try this compound next: C#CC(=O)NC1CC(Oc2cc3c(Nc4ccc(Cl)c(Cl)c4F)ncnc3cc2OC)C1 (centres unmarked)
≥ 6.70

Try this compound next: C=CS(=O)(=O)N1CCC(Oc2c(OC)cc3ncnc4c3c2NC(=O)N4c2ccc(Cl)c(Cl)c2)CC1
6.00 to 6.70

Try this compound next: C=CC(=O)N1CCC(Oc2cc3c(NCc4cc(Cl)cc(Cl)c4)ncnc3cc2OC)CC1
< 6.00

Try this compound next: C=CC(=O)N1CCC(Oc2cc3c(NCc4cccc(F)c4)ncnc3cc2OC)CC1
6.00 to 6.70

* * *

# targetOfAssay: Ba/F3 stable cells (Homo sapiens, UniProt P00533, INS763FQEA, cells depend on it)
# Construct: EC50 Ba/F3-EGFR A763-Y764insFQEA; other: Ba/F3-EGFR A763-Y764insFQEA cells, 72 h, CCK-8
# runDescription: EC50 assay: Ba/F3 stable cell proliferation (CCK-8, 72 h)
# experimentalSetup: Ba/F3-EGFR A763-Y764insFQEA cells
propertyMeasured: EC50

{"columns": ["compound", "EC50"],
 "data": [
  ["C=CC(=O)N1CC(c2cc3c(Nc4ccc(Cl)c(Cl)c4F)ncnc3cc2OC2COC2)C1", "≤ 0.2 µM"]
]}

Form field: reported EC50 of C=CC(=O)N1CCC(Oc2cc3c(Nc4ccc5cccnc5c4)ncnc3cc2OC)CC1
≤ 0.2 µM

Try this compound next: C=C(F)C(=O)N1CC(c2cc3c(Nc4ccc(Cl)c(Cl)c4F)ncnc3cc2O[C@H]2CCOC2)C1
≤ 0.2 µM

Try this compound next: C=CC(=O)N1CCC(Oc2cc3c(Nc4ccnc5ccccc45)ncnc3cc2OC)CC1
≤ 0.2 µM

* * *

# targetOfAssay: Ba/F3 stable cells (Homo sapiens, UniProt P00533, T790M/L858R, cells depend on it)
# Construct: EC50 Ba/F3-EGFR L858R-T790M; other: Ba/F3-EGFR L858R-T790M cells, 72 h, CCK-8
# Sequence (P00533 whole entry T790M/L858R): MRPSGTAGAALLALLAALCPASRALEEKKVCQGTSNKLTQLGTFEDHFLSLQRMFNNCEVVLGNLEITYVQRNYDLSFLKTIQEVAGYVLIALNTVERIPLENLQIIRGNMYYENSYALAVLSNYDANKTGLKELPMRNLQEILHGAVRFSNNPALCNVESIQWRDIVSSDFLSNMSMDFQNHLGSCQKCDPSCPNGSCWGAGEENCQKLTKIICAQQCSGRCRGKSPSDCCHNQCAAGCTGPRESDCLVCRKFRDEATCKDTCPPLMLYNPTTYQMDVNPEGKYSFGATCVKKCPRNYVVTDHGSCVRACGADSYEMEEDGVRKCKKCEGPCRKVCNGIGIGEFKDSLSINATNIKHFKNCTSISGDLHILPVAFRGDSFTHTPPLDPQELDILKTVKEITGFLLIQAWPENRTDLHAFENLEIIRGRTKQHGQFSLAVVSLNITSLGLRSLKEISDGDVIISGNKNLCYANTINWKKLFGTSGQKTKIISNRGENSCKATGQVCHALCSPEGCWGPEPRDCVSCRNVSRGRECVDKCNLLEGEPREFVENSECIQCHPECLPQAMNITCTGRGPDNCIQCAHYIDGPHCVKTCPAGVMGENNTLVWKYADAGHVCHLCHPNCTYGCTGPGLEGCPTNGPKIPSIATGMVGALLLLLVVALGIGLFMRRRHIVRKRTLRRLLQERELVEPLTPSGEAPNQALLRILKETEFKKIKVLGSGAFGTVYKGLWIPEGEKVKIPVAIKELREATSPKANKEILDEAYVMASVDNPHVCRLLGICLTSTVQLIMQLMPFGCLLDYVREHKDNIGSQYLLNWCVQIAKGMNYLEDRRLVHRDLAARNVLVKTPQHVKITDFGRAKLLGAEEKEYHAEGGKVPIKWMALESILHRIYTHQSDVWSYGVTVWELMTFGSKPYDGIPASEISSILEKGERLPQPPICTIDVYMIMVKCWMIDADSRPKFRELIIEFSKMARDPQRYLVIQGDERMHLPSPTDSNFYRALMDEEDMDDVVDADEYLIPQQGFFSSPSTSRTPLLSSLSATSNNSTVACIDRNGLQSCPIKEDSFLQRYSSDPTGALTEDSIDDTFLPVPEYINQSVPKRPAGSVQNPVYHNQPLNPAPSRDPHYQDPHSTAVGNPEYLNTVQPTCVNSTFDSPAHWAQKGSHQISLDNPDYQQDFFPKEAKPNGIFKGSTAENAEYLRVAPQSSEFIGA
# runDescription: EC50 assay: Ba/F3 stable cell proliferation (CCK-8, 72 h)
# experimentalSetup: Ba/F3-EGFR L858R-T790M cells
propertyMeasured: EC50

{"columns": ["compound", "recordedValue"],
 "data": [
  ["C=CC(=O)N1CC(c2ccc3ncnc(Nc4ccc(Cl)c(Cl)c4F)c3c2)C1 [Compound 8]", "> 1 µM"]
]}

Form: Entry = C=CC(=O)N1CCC(Oc2cc3c(OCc4cccc(Cl)c4)ncnc3cc2OC)CC1 [Compound 107] | System = Ba/F3 stable cells (Homo sapiens, UniProt P00533, T790M/L858R, cells depend on it) | EC50 = ____
0.2 to 1 µM

Try this compound next: C=CC(=O)N[C@H]1C[C@@H](Oc2cc3c(Nc4ccc(Cl)c(Cl)c4F)ncnc3cc2OC)C1 [Compound 66]
≤ 0.2 µM

Try this compound next: C=CC(=O)N1CCC(Oc2cc3c(NCc4ccc(Cl)cc4Cl)ncnc3cc2OC)CC1 [Compound 109]
> 1 µM

Try this compound next: C=C(F)C(=O)N[C@H]1C[C@@H](Oc2cc3c(Nc4ccc(Cl)c(Cl)c4F)ncnc3cc2OC)C1 [Compound 40]
0.2 to 1 µM

Try this compound next: C=CC(=O)N1CC(c2cc3c(Nc4ccc(Cl)c(Cl)c4F)ncnc3cc2O[C@@H]2CCOC2)C1 [Compound 29]
≤ 0.2 µM

Try this compound next: C=CC(=O)N1CCC(Oc2cc3c(Nc4ccc5c(c4)OCO5)ncnc3cc2OC)CC1 [Compound 152]
0.2 to 1 µM

Try this compound next: C=CC(=O)N(C)C1CC(Oc2cc3c(Nc4ccc(Cl)c(Cl)c4F)ncnc3cc2OC)C1 (centres unmarked) [Compound 72]
0.2 to 1 µM
